I'd appreciate it if you could supply percent inhibition (TR-FRET) values for the items below.
experimental_system: MAGE-A11:PCF11 interaction (GST-MAGE-A11 and FAM-PCF11_4) (Homo sapiens, UniProt P43364)
Construct: GST-MAGE-A11 MHD (human MAGE-A11 MHD amino acid 218-429); made in house; host or cells: E. coli BL21(DE3)
Sequence (P43364 218-429): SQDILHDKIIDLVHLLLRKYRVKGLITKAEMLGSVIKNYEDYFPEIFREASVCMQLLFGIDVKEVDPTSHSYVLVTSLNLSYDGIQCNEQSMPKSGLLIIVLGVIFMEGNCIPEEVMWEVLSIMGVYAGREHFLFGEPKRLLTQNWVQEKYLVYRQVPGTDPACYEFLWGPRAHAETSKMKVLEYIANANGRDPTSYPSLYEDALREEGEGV
assay_text: TR-FRET primary / single point screen at 15 µM
Assay type: binding
condition_parameters: single point TR-FRET screening of 797 quinoline compounds against MAGE-A11:PCF11
The response must contain the number and no unit.

percent inhibition (TR-FRET) measured on CCc1ccc(S(=O)(=O)c2cnc3ccccc3c2N2CCN(c3ccccc3OC)CC2)cc1 = -47.4423

percent inhibition (TR-FRET) measured on CCN1CCN(c2c(S(=O)(=O)c3ccc(C)cc3)cnc3cc(OC)c(OC)cc23)CC1 = 7.146

percent inhibition (TR-FRET) measured on COc1ccc2nc3cc(Cl)ccc3c(NCCCNCC3CC3)c2c1 = -502.358

percent inhibition (TR-FRET) measured on Cc1ccc(S(=O)(=O)c2cnc3ccccc3c2N2CCN(c3ccc(F)cc3)CC2)cc1 = -20.6111

percent inhibition (TR-FRET) measured on Fc1ccccc1CN1CCC(Nc2ccnc3cc(Cl)ccc23)CC1 = -0.9977

percent inhibition (TR-FRET) measured on COc1ccc2nc3cc(Cl)ccc3c(NCCCNCc3cccs3)c2c1 = -453.536

percent inhibition (TR-FRET) measured on COc1ccc(OC(F)(F)F)cc1CN(CCCCNc1ccnc2cc(Cl)ccc12)Cc1ccccc1 = 26.6585

percent inhibition (TR-FRET) measured on COc1cccc(CN(CCCCNc2ccnc3cc(Cl)ccc23)Cc2ccccc2)c1O = 7.676

percent inhibition (TR-FRET) measured on CN(C)CCNc1c2c(nc3ccccc13)CCC2 = 3.285

###

I'd appreciate it if you could supply percent inhibition (TR-FRET) values for the items below.
experimental_system: MAGE-A11:PCF11 interaction (GST-MAGE-A11 and FAM-PCF11_4) (Homo sapiens)
Construct: GST-MAGE-A11 MHD (human MAGE-A11 MHD amino acid 218-429); made in house; host or cells: E. coli BL21(DE3)
assay_text: TR-FRET primary / single point screen at 15 µM
Type: binding
condition_parameters: single point TR-FRET screening of quinoline compounds against MAGE-A11:PCF11; 15 µM

# value of percent inhibition (TR-FRET), MAGE-A11:PCF11 interaction (GST-MAGE-A11 and FAM-PCF11_4) (Homo sapiens), item Fc1cccc(CN(CCCNc2ccnc3cc(Cl)ccc23)Cc2ccccc2)c1 = 20.3571

# value of percent inhibition (TR-FRET), MAGE-A11:PCF11 interaction (GST-MAGE-A11 and FAM-PCF11_4) (Homo sapiens), item CSCCCNCCCNc1ccnc2cc(Cl)ccc12 = 14.9659

# value of percent inhibition (TR-FRET), MAGE-A11:PCF11 interaction (GST-MAGE-A11 and FAM-PCF11_4) (Homo sapiens), item CCOC(=O)c1cnc2c(C)cc(C)cc2c1NCCCN(C)C = 14.9289

# value of percent inhibition (TR-FRET), MAGE-A11:PCF11 interaction (GST-MAGE-A11 and FAM-PCF11_4) (Homo sapiens), item CCCN(CCCNc1ccnc2cc(C(F)(F)F)ccc12)Cc1cccnc1Br = 5.164

# value of percent inhibition (TR-FRET), MAGE-A11:PCF11 interaction (GST-MAGE-A11 and FAM-PCF11_4) (Homo sapiens), item CCCN(CCCNc1c2ccc(Cl)cc2nc2ccc(OC)cc12)Cc1c(F)c(F)c(F)c(F)c1F = -2.258

###

experimental_system: MAGE-A11:PCF11 interaction (GST-MAGE-A11 and FAM-PCF11_4) (Homo sapiens)
Construct: GST-MAGE-A11 MHD (human MAGE-A11 MHD amino acid 218-429); made in house; host or cells: E. coli BL21(DE3)
assay_text: TR-FRET primary / single point screen at 15 µM
Type: binding
condition_parameters: single point TR-FRET screening of quinoline compounds against MAGE-A11:PCF11; 15 µM
measured_endpoint: percent inhibition (TR-FRET)
The response must contain the number and no unit.

# value of percent inhibition (TR-FRET), MAGE-A11:PCF11 interaction (GST-MAGE-A11 and FAM-PCF11_4) (Homo sapiens), item CCCN(CCCNc1ccnc2cc(Cl)ccc12)Cc1ccc([N+](=O)[O-])s1 [SJ000522750] = 9.134

# value of percent inhibition (TR-FRET), MAGE-A11:PCF11 interaction (GST-MAGE-A11 and FAM-PCF11_4) (Homo sapiens), item CCCN(CCCNc1ccnc2cc(C(F)(F)F)ccc12)Cc1ncc[nH]1 [SJ000575181] = 9.345

# value of percent inhibition (TR-FRET), MAGE-A11:PCF11 interaction (GST-MAGE-A11 and FAM-PCF11_4) (Homo sapiens), item CCC(CC)CN(CCCNc1ccnc2cc(Cl)ccc12)Cc1ccccc1 [SJ000361172] = 22.9132

# value of percent inhibition (TR-FRET), MAGE-A11:PCF11 interaction (GST-MAGE-A11 and FAM-PCF11_4) (Homo sapiens), item CCCN(CCCNc1ccnc2cc(Cl)ccc12)Cc1sccc1C [SJ000357439] = 19.7269

# value of percent inhibition (TR-FRET), MAGE-A11:PCF11 interaction (GST-MAGE-A11 and FAM-PCF11_4) (Homo sapiens), item CCC(C)CNCCCNc1ccnc2cc(C(F)(F)F)ccc12 (stereo not shown) [SJ000361112] = 18.4697

# value of percent inhibition (TR-FRET), MAGE-A11:PCF11 interaction (GST-MAGE-A11 and FAM-PCF11_4) (Homo sapiens), item CCCCCN(CCC)CCCNc1ccnc2cc(Cl)ccc12 [SJ000522754] = 16.2885

# value of percent inhibition (TR-FRET), MAGE-A11:PCF11 interaction (GST-MAGE-A11 and FAM-PCF11_4) (Homo sapiens), item Cn1cc(CNCCCNc2ccnc3cc(C(F)(F)F)ccc23)c2ccccc21 [SJ000521043] = 29.109

# value of percent inhibition (TR-FRET), MAGE-A11:PCF11 interaction (GST-MAGE-A11 and FAM-PCF11_4) (Homo sapiens), item CCCN(CCCNc1ccnc2cc(C(F)(F)F)ccc12)Cc1ccccc1OC [SJ000523072] = 32.6098

# value of percent inhibition (TR-FRET), MAGE-A11:PCF11 interaction (GST-MAGE-A11 and FAM-PCF11_4) (Homo sapiens), item Clc1ccc2c(NCCCNCc3nc4ccccc4s3)ccnc2c1 [SJ000521034] = 4.695

# value of percent inhibition (TR-FRET), MAGE-A11:PCF11 interaction (GST-MAGE-A11 and FAM-PCF11_4) (Homo sapiens), item CCCN(CCCNc1c2ccc(Cl)cc2nc2ccc(OC)cc12)Cc1cc2ccccc2s1 [SJ000522962] = -21.5824

# value of percent inhibition (TR-FRET), MAGE-A11:PCF11 interaction (GST-MAGE-A11 and FAM-PCF11_4) (Homo sapiens), item CCCN(CCCNc1ccnc2cc(C(F)(F)F)ccc12)Cc1cc2ccccc2s1 [SJ000520482] = 13.0054

# value of percent inhibition (TR-FRET), MAGE-A11:PCF11 interaction (GST-MAGE-A11 and FAM-PCF11_4) (Homo sapiens), item CCCN(CCCNc1ccnc2cc(Cl)ccc12)Cc1ccc2[nH]ccc2c1 [SJ000522746] = 96.845

# value of percent inhibition (TR-FRET), MAGE-A11:PCF11 interaction (GST-MAGE-A11 and FAM-PCF11_4) (Homo sapiens), item Clc1ccc2c(NCCCN(Cc3ccccc3)Cc3ccco3)ccnc2c1 [SJ000312668] = 0.5217

# value of percent inhibition (TR-FRET), MAGE-A11:PCF11 interaction (GST-MAGE-A11 and FAM-PCF11_4) (Homo sapiens), item FC(F)(F)c1ccc2c(NCCCNCc3ccco3)ccnc2c1 [SJ000361113] = 18.0466

# value of percent inhibition (TR-FRET), MAGE-A11:PCF11 interaction (GST-MAGE-A11 and FAM-PCF11_4) (Homo sapiens), item Cc1c(CNCCCNc2ccnc3cc(Cl)ccc23)c(=O)n(-c2ccccc2)n1C [SJ000523058] = 5.584

# value of percent inhibition (TR-FRET), MAGE-A11:PCF11 interaction (GST-MAGE-A11 and FAM-PCF11_4) (Homo sapiens), item CCCN(CCCNc1ccnc2cc(Cl)ccc12)Cc1c(F)cccc1OC [SJ000357499] = 19.4021

# value of percent inhibition (TR-FRET), MAGE-A11:PCF11 interaction (GST-MAGE-A11 and FAM-PCF11_4) (Homo sapiens), item Cn1cccc1CNCCCNc1ccnc2cc(Cl)ccc12 [SJ000521019] = 18.9568

# value of percent inhibition (TR-FRET), MAGE-A11:PCF11 interaction (GST-MAGE-A11 and FAM-PCF11_4) (Homo sapiens), item CCCN(CCCNc1ccnc2cc(Cl)ccc12)Cc1ccc(Cl)c([N+](=O)[O-])c1 [SJ000522761] = 16.951

# value of percent inhibition (TR-FRET), MAGE-A11:PCF11 interaction (GST-MAGE-A11 and FAM-PCF11_4) (Homo sapiens), item CCCN(CCCNc1ccnc2cc(Cl)ccc12)Cc1cc(OC)ccc1F [SJ000522996] = 26.6585
